Provide the recorded EC50 for the entries that follow.
# System: NL-RLuc virus
# Protocol notes: Inhibition of HIV replication (NL-RLuc virus, luciferase readout in MT-2 cells)
# Format: cell-based
# Conditions used: Human immunodeficiency virus 1, MT2, 120 h, read-out: Activity
# Description: Inhibition of HIV Replication: A recombinant NL-RLuc proviral clone was constructed in which a section of the nef gene from NL4-3 was replaced with the Renilla Luciferase gene. […] In addition, the luciferous reporter provides a simple and easy method for quantitating the extent of virus growth and consequently, the antiviral activity of test compounds. […] Luciferase was quantitated using the Dual Luciferase kit from Promega (Madison, Wis.). […]

Query string: Requested field: EC50. Item: Cc1ccccc1CN1CCc2cc(-c3c(C)nc(C)c([C@H](OC(C)(C)C)C(=O)O)c3-c3cc(F)c4c(c3C)CCCO4)ccc2C1
Result string: < 100 nM

Query string: Now consider Cc1nc(CN(C)CC2CCOCC2)c(-c2ccc3c(c2)CCN(c2ncnc4c2cnn4C)C3)c(-c2ccc3c(c2)CCCO3)c1[C@H](OC(C)(C)C)C(=O)O .
Result string: 100 to 1000 nM

Query string: Try this compound too: Cc1nc(C)c([C@H](OC(C)(C)C)C(=O)O)c(C2=CCC(C)(C)CC2)c1-c1ccc(OCCc2ccc(F)cc2)cc1
Result string: < 100 nM

###

# Tested on: NL-RLuc virus
# Protocol notes: Inhibition of HIV replication (NL-RLuc virus, luciferase readout in MT-2 cells)
# Assay type: cell-based
# Conditions used: Human immunodeficiency virus 1, MT2, 120 h, read-out: Activity
pEC50: −log10 of the molar value.
Reported property: pEC50

Query string: // pEC50 lookup, key: COc1ccc(COc2ccc(-c3c(C)nc(C)c([C@H](OC(C)(C)C)C(=O)O)c3-c3ccc(Cl)cc3)cc2)cc1 [Example 2]
Result string: > 7.00

Query string: What do you get for COc1nccc(N2CCc3cc(-c4c(C)nc(C)c([C@H](OC(C)(C)C)C(=O)O)c4-c4ccc5c(c4)CCCO5)ccc3C2)n1 [Example 57] ?
Result string: > 7.00

Query string: Same question for Cc1nc(CN(C)CC2CCOCC2)c(-c2ccc(OCCc3ccc(F)cc3)cc2)c(-c2ccc3c(c2)CCCO3)c1[C@H](OC(C)(C)C)C(=O)O [Example 13] please.
Result string: > 7.00

###

Would you kindly list EC50 for each of these compounds?
# System: NL-RLuc virus
# Protocol notes: Inhibition of HIV replication (NL-RLuc virus, luciferase readout in MT-2 cells)
# Format: cell-based
# Conditions used: Human immunodeficiency virus 1, MT2, 120 h, read-out: Activity

Query string: Form field: EC50 recorded for Cc1nc(C)c([C@H](OC(C)(C)C)C(=O)O)c(-c2ccc3c(c2)CCCO3)c1-c1ccc2c(c1)CCN(Cc1ccccc1F)C2 [Example 23] with NL-RLuc virus (enter value)
Result string: < 100 nM

Query string: Query Cc1cccc(Cl)c1CN1CCc2cc(-c3c(C)nc(C)c([C@H](OC(C)(C)C)C(=O)O)c3-c3cc(F)c4c(c3)CCCO4)ccc2C1 [Example 51] next
Result string: < 100 nM

Query string: Follow-up entry: Cc1nc(C)c([C@H](OC(C)(C)C)C(=O)O)c(-c2ccc3c(c2)CCCO3)c1-c1ccc(OCCc2ccccc2F)cc1 [Example 45]
Result string: < 100 nM

Query string: Next: Cc1nc(C)c([C@H](OC(C)(C)C)C(=O)O)c(-c2ccc3c(c2)CCCO3)c1-c1ccc2c(c1)CCN(Cc1ccccc1Cl)C2 [Example 27]
Result string: < 100 nM

Query string: Input Cc1ccc(-c2c(-c3ccc(OCc4ccc(F)cc4)cc3)c(C)nc(C)c2[C@H](OC(C)(C)C)C(=O)O)cc1 [Example 5]
Result string: 100 to 1000 nM

Query string: Same thing, different compound: COCCNCc1nc(C)c([C@H](OC(C)(C)C)C(=O)O)c(-c2ccc3c(c2)CCCO3)c1-c1ccc(OCCc2ccc(F)cc2)cc1 [Example 12]
Result string: < 100 nM

Query string: Thanks! And Cc1cc(N2CCc3cc(-c4c(C)nc(C)c([C@H](OC(C)(C)C)C(=O)O)c4-c4cc(F)c5c(c4)CCCO5)ccc3C2)ncn1 [Example 52] ?
Result string: < 100 nM

Query string: Same question, CCOc1ccc(-c2c(C)nc(C)c([C@H](OC(C)(C)C)C(=O)O)c2-c2cc(F)c3c(c2C)CCCO3)cc1 [Example 7] this time
Result string: 100 to 1000 nM

Query string: Quick one: Cc1cc(N2CCc3cc(-c4c(N)nc(C)c([C@H](OC(C)(C)C)C(=O)O)c4-c4ccc5c(c4)CCCO5)ccc3C2)nc(C)n1 [Example 65]
Result string: < 100 nM

Query string: // query: Cc1nc(C)c([C@H](OC(C)(C)C)C(=O)O)c(-c2cc(F)c3c(c2)CCCO3)c1-c1ccc2c(c1)CCN(c1ncnc3c1cnn3C)C2 [Example 53]
Result string: < 100 nM

Query string: What do you have for Cc1nc(C)c([C@H](OC(C)(C)C)C(=O)O)c(-c2ccc3c4c(ccnc24)CCO3)c1-c1ccc(OCCc2ccc(F)cc2)cc1 [Example 43] ?
Result string: 100 to 1000 nM

Query string: Try this compound next: COc1ccc(COc2ccc(-c3c(C)nc(C)c([C@H](OC(C)(C)C)C(=O)O)c3-c3ccc(C)cc3)cc2)cc1 [Example 3]
Result string: 100 to 1000 nM

Query string: # iterate: CCOCCOCc1nc(C)c([C@H](OC(C)(C)C)C(=O)O)c(-c2ccc3c(c2)CCCO3)c1-c1ccc(OCCc2ccc(F)cc2)cc1 [Example 17]
Result string: < 100 nM

Query string: Check Cc1nc(C)c([C@H](OC(C)(C)C)C(=O)O)c(-c2cc(F)c3c(c2C)CCCO3)c1-c1ccc2c(c1)CCN(Cc1ccccc1F)C2 [Example 38] too.
Result string: < 100 nM

Query string: Now this one: Cc1cc(N2CCc3cc(-c4c(CN(C)CC5CCOCC5)nc(C)c([C@H](OC(C)(C)C)C(=O)O)c4-c4ccc5c(c4)CCCO5)ccc3C2)ncn1 [Example 33]
Result string: 100 to 1000 nM

Query string: Let us now turn to Cc1nc(N)c(-c2ccc(OCCc3ccc(F)cc3)cc2)c(-c2ccc3c(c2)CCCO3)c1[C@H](OC(C)(C)C)C(=O)O [Example 59]
Result string: < 100 nM

Query string: Same again, this time with COc1ccc(COc2ccc(-c3c(C)nc(C)c([C@H](OC(C)(C)C)C(=O)O)c3-c3ccc(OCc4ccc(OC)cc4)cc3)cc2)cc1 [Example 4]
Result string: 100 to 1000 nM

Query string: What do you have for Cc1nc(C)c([C@H](OC(C)(C)C)C(=O)O)c(-c2ccc3c(c2)CCCO3)c1-c1ccc2c(c1)CCN(Cc1ccc(F)cc1)C2 [Example 20] ?
Result string: < 100 nM

Query string: Likewise for Cc1ccc(CN2CCc3cc(-c4c(C)nc(C)c([C@H](OC(C)(C)C)C(=O)O)c4-c4ccc5c(c4)CCCO5)ccc3C2)c(C)c1 [Example 28] ?
Result string: < 100 nM

Query string: Try Cc1cccc(F)c1CN1CCc2cc(-c3c(C)nc(C)c([C@H](OC(C)(C)C)C(=O)O)c3-c3cc(F)c4c(c3C)CCCO4)ccc2C1 [Example 39] next.
Result string: < 100 nM

Query string: And what about the compound Cc1nc(COCC2COC2)c(-c2ccc(OCCc3ccc(F)cc3)cc2)c(-c2ccc3c(c2)CCCO3)c1[C@H](OC(C)(C)C)C(=O)O [Example 16] ?
Result string: < 100 nM

Query string: One more compound: COc1nccc(N2CCc3cc(-c4c(N)nc(C)c([C@H](OC(C)(C)C)C(=O)O)c4-c4ccc5c(c4)CCCO5)ccc3C2)n1 [Example 64]
Result string: < 100 nM

Query string: Similarly, Cc1nc(C)c([C@H](OC(C)(C)C)C(=O)O)c(-c2ccc3c(c2)CCCO3)c1-c1ccc2c(c1)CCN(CCc1ccccc1F)C2 [Example 30] ?
Result string: < 100 nM

Query string: Now the compound Cc1nc(C)c([C@H](OC(C)(C)C)C(=O)O)c(-c2cc(F)c3c(c2C)CCCO3)c1-c1cc(F)c2c(c1C)CCCO2 [Example 1]
Result string: > 1000 nM

Query string: Would you mind doing Cc1nc(C)c([C@H](OC(C)(C)C)C(=O)O)c(-c2ccc3c(c2)CCCO3)c1-c1ccc2c(c1)CCNC2 [Example 21] as well?
Result string: > 1000 nM
